- assayedTarget: T1, Claudin 18.2 (CLDN18.2), expressed on CHOS-CLDN 18.2 / HEK293-CLDN 18.2 / HCC827-CLDN 18.2 cells (human, UniProt P56856-2 1-261)
- T1 construct: whole, on cells; The species is not repeated for the CHOS-CLDN 18.2 cells; also called claudin-18A2
- experimentNotes: FACS, CHOS-CLDN18.2 cells, 0.005 µg/ml
quantityName: FACS reading
One number for each entry.

Below are some binders; for each one, tell me its FACS reading.
1. QP14451440 (antibody, human IgG1, kappa, V domains shown, Humanized from QP192193; also called QP14401445) VH: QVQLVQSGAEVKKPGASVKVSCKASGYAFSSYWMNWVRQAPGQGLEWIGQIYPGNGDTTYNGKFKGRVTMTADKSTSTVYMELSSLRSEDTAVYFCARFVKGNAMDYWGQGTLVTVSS VL: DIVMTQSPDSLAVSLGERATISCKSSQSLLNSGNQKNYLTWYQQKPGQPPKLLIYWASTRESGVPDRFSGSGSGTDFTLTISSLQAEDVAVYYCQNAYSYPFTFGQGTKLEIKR
2. QP024025 (antibody, human IgG1, V domains shown, also called IMAB362; 175D10(IMAB362)) VH: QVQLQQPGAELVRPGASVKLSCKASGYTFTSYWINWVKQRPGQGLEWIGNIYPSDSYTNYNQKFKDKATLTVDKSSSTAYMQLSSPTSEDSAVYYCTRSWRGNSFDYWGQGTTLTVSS VL: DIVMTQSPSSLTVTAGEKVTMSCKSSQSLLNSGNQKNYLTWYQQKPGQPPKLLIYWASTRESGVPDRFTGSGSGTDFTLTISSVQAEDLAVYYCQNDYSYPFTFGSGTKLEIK
3. QP14441441 (antibody, human IgG1, kappa, V domains shown, Humanized from QP192193) VH: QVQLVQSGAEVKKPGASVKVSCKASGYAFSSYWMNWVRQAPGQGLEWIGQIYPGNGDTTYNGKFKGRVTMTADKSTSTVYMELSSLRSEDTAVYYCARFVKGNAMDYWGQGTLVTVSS VL: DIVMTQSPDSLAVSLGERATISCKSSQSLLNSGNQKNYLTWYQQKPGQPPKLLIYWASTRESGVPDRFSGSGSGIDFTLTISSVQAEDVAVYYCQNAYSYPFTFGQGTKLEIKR

Reply:
4930
2830
4230
